- measured-on: human TPOR (Homo sapiens)
- Sequence (P40238 26-635): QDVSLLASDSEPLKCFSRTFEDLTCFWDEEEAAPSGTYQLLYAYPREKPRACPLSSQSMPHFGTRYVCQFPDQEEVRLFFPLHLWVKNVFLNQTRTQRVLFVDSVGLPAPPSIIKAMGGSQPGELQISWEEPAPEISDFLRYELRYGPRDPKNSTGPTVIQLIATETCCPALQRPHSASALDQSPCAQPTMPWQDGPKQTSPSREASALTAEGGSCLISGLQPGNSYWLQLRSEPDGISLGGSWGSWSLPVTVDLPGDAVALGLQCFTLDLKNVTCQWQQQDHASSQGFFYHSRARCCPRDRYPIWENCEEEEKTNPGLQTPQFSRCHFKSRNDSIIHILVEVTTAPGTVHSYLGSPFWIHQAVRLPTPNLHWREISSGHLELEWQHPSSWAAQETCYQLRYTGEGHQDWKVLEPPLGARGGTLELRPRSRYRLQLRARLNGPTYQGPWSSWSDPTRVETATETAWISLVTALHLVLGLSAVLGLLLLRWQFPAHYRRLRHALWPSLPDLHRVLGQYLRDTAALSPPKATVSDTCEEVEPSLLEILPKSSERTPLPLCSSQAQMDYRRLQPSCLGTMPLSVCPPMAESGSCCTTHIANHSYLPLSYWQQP
- method: Proliferation effect on BAF3-TPOR cell (CCK-8)
- conditions: rate relative to rhTPO positive control
Each entry below carries its recorded log10 EC50.
Please be aware that the numbers have been log10-transformed from EC50 in nM.

Worked cases, log10 EC50 given:
The measured log10 EC50 that CC1=NN(c2ccc3c(c2)CCCC3)C(=O)/C1=N\Nc1cccc(-c2ccc(C(=O)O)o2)c1O [Example 12] showed for human TPOR (Homo sapiens) is 1.15

The measured log10 EC50 that CC1=NN(c2ccc3c(c2)C(C)(C)CC3)C(=O)/C1=N\Nc1cccc(-c2ccc(C(=O)O)o2)c1O [Example 6] showed for human TPOR (Homo sapiens) is 1.56

The measured log10 EC50 that CC1=NN(c2ccc3c(c2)CCC3)C(=O)/C1=N\Nc1cccc(-c2cccc(C(=O)O)c2)c1O showed for human TPOR (Homo sapiens) is 2.30

The measured log10 EC50 that CC1=NN(c2ccc3c(c2)CCCC3)C(=O)/C1=N\Nc1cccc(-c2coc(C(=O)O)c2)c1O.NCCO.NCCO showed for human TPOR (Homo sapiens) is 1.59

Continuing:
The measured log10 EC50 that CC1=NN(c2ccc3c(c2)CCCC3)C(=O)/C1=N\Nc1cccc(-c2ccc(C(=O)O)o2)c1O [Example 10] showed for human TPOR (Homo sapiens) is 1.20

###

- method: Pharmacokinetics assay in rats
- Assay type: in vivo, SD rats
- conditions: SD rats, intragastric, 50 mg/Kg (as free acid); 50 mg/kg
readout: Plasma Conc. Cmax (ng/mL)
The figure you give is taken to be in ng/mL; do not add the unit.

Reported Plasma Conc. Cmax ( CC1=NN(c2ccc3c(c2)CCCC3)C(=O)/C1=N\Nc1cccc(-c2ccc(C(=O)O)o2)c1O [Example 12] ) = 17800

Reported Plasma Conc. Cmax ( CC1=NN(c2ccc3c(c2)CCC3)C(=O)/C1=N\Nc1cccc(-c2cccc(C(=O)O)c2)c1O [Example 3] ) = 79000

Reported Plasma Conc. Cmax ( CC1=NN(c2ccc3c(c2)CCC3)C(=O)/C1=N\Nc1cccc(-c2csc(C(=O)O)c2)c1O [Example 19d] ) = 7910

Reported Plasma Conc. Cmax ( CC1=NN(c2ccc3c(c2)C(C)(C)CC3)C(=O)/C1=N\Nc1cccc(-c2ccc(C(=O)O)o2)c1O [Example 4h] ) = 1290

Reported Plasma Conc. Cmax ( CC1=NN(c2ccc3c(c2)CCCC3)C(=O)/C1=N\Nc1cccc(-c2ccc(C(=O)O)o2)c1O [Example 15] ) = 23300

Reported Plasma Conc. Cmax ( CC1=NN(c2ccc3c(c2)CCCC3)C(=O)/C1=N\Nc1cccc(-c2ccc(C(=O)O)o2)c1O [Example 8] ) = 36200

Reported Plasma Conc. Cmax ( CC1=NN(c2ccc3c(c2)C(C)(C)CC3)C(=O)/C1=N\Nc1cccc(-c2ccc(C(=O)O)o2)c1O [Example 5] ) = 19800

Reported Plasma Conc. Cmax ( CC1=NN(c2ccc3c(c2)CCC3)C(=O)/C1=N\Nc1cccc(-c2ccc(C(=O)O)o2)c1O [Example 16a] ) = 6810

Reported Plasma Conc. Cmax ( CC1=NN(c2ccc3c(c2)CCCC3)C(=O)/C1=N\Nc1cccc(-c2ccc(C(=O)O)o2)c1O [Example 7d] ) = 16200

Reported Plasma Conc. Cmax ( CC1=NN(c2ccc3c(c2)CCCC3)C(=O)/C1=N\Nc1cccc(-c2ccc(C(=O)O)o2)c1O [Example 10] ) = 65600

Reported Plasma Conc. Cmax ( CC1=NN(c2ccc3c(c2)CCCC3)C(=O)/C1=N\Nc1cccc(-c2ccc(C(=O)O)o2)c1O [Example 11] ) = 40200
